# System: T1, human OX40L protein (OX40L-his), Acro Biosystems Cat #OXL-H52Q8 (human, UniProt P23510 51-183)
# T1 sequence: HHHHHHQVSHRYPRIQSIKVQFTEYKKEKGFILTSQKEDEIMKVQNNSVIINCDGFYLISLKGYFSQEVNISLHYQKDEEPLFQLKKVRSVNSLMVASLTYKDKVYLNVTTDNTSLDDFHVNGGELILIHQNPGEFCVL
# Procedure Summary: cell-based or functional assay
Property Measured: IC50 (nM), OX40L blockade assay (luminescence of NFκB-luc2/OX40 Jurkat cells)
Provide the measurement as a number trailed by its unit.

Some binders with recorded IC50 (nM), OX40L blockade assay (luminescence of NFκB-luc2/OX40 Jurkat cells):
{"columns": ["Binder", "Value Observed"],
 "data": [
  ["anti-OX40L antibody 10H07 (antibody, human IgG4 S228P, kappa, V domains shown, Chimeric; IgG4 S228P / kappa) VH: QVYLQQSGAELVKPGASVKLSCKASGYTFTDYWMHWVKQRPGQGLEWIGEIDPGNGRTNYNEKFKNKATLSVDKSSNTAYMQFSSLTSEDSAVFYCASEGAGRGFPYWGQGTLVTVSA VL: DVVLTQTPLSLPVSLGDQASISCRSSQSLVHSNGNTYLHWYLQKPGQSPKLLIYKVSNRFSGVPDRFSGSGSGTDFTLKISRVEAEDLGVYFCSQSTHVPWTFGGGTKLEIKR", "0.41 nM"],
  ["anti-OX40L antibody 21G07 (antibody, human IgG4 S228P, kappa, V domains shown, Chimeric; IgG4 S228P / kappa) VH: QVQLQQSGAELVKPGASVKLSCKASGYTFTNYWMQWVKQRPGQGLEWIGEIDPSDGRTNYNEKFKNKATLTVDRSSSTAYIKLSSLTSEDSAVYYCAREVSLRSMDYWGQGTSVTVSS VL: DIVLTQSPLSLPVSLGDQASISCRSSQSLVHSNGNTYLHWYLQKPGQSPKLLIYKVSNRFSGVPDRFSGSGSGTDFTLKISRVEAEDLGVYFCSQSTHVPFTFGSGTKLEIKR", "0.85 nM"]
]}

In: I am curious: what IC50 (nM), OX40L blockade assay (luminescence of NFκB-luc2/OX40 Jurkat cells) value has been reported for anti-OX40L antibody Hu3F07 (antibody, human IgG4 S228P, kappa, V domains shown, Humanized; IgG4 S228P / kappa) VH: QVQLVQSGAEVKKPGASVKVSCKASGFTFPDYWMHWVRQAPGQGLEWMGEIDPPNGRTNYNEKFKSRVTMTRDTSISTAYMELSRLRSDDTAVYYCARGIYYVDYWGQGTTVTVSS VL: DIVMTQSPLSLPVTLGEPASISCRSSQSLVHSNGNTYLHWYLQKPGQSPQLLIYKVSNRFSGVPDRFSGSGSGTDFTLKISRVEAEDVGVYYCSQSTHVPPTFGGGTKLEIKR ?
Out: 0.2 nM

These data points were gathered from patent US20240270859A1.
